- ASSAY_SYSTEM: IKZF2 (Homo sapiens, UniProt Q96SW2+Q9UKS7)
- Sequence (Q9UKS7 1-500 isoform Q9UKS7-2): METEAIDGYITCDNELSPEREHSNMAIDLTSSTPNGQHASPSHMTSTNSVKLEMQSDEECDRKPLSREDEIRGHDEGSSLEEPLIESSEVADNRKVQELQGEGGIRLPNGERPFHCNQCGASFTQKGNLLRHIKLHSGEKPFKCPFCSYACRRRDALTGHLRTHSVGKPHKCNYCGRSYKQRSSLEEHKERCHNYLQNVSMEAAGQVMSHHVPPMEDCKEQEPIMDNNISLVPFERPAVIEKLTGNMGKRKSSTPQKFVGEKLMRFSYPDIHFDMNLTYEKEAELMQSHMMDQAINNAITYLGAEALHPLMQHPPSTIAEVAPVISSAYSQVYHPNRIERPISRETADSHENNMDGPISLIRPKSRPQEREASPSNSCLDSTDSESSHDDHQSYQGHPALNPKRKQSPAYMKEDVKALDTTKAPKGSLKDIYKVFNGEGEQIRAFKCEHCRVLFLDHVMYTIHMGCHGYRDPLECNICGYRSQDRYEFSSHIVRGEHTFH
- Sequence (Q96SW2 whole entry): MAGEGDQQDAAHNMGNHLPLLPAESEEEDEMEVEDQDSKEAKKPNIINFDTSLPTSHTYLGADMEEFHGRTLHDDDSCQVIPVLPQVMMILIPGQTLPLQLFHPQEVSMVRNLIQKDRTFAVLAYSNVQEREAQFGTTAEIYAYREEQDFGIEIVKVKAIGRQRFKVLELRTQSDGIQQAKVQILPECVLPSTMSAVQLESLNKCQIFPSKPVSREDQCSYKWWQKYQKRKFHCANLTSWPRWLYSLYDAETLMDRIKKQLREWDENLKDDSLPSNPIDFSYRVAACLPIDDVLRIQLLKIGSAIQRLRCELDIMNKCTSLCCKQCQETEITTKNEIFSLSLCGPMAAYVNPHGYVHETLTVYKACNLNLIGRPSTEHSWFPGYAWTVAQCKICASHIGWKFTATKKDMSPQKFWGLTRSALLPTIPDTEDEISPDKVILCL
- Sequence (Q16531 whole entry partner): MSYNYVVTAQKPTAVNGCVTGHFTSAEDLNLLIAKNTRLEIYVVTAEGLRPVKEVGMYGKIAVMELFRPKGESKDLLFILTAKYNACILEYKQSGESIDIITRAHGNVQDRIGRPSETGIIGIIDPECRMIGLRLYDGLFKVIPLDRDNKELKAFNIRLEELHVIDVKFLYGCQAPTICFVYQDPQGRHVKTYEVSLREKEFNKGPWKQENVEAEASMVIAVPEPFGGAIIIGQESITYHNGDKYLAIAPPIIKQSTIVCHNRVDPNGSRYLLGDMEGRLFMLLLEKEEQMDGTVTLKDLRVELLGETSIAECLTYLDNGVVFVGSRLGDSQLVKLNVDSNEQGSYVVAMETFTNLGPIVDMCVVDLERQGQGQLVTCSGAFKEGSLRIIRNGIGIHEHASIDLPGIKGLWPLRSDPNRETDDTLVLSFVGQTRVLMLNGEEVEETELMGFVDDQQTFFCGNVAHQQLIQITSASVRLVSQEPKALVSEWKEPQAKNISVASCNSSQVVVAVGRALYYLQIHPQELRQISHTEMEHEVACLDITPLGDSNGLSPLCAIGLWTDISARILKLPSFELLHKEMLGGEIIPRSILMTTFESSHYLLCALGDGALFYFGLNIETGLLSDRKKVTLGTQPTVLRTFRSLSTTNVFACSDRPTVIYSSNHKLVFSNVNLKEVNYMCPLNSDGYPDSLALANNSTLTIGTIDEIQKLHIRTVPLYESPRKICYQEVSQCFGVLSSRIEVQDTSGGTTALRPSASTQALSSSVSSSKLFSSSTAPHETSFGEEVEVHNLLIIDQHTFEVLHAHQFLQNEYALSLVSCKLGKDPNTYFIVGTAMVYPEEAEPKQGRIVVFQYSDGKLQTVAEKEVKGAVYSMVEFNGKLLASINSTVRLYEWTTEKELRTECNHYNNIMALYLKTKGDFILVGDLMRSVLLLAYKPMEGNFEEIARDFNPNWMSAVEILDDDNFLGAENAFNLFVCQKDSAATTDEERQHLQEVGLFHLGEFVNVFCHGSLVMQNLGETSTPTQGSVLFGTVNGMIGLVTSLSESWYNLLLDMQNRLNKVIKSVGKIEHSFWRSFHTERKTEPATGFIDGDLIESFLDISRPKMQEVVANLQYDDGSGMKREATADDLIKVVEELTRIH
- TEST_DESCRIPTION: HEK293 HiBiT in vitro degradation of IKZF2
- Type: cell-based
- Set-up: expressed in transfected cells
- CONDITION_SUMMARY: HEK293, HEK293 HiBiT; maximum degradation at the highest concentration tested
ASSAY_METRIC: Dmax (%)
// units = %; emit number, no label

Completed entries (count: 5):
COMPOUND	VALUE_UNITS	Dmax
CC(C)N[C@H]1CCCO[C@@H]1Cc1ccc2c(c1)CN(C1CCC(=O)NC1=O)C2=O (stereo partly shown)	%	85
O=C1CCC(N2Cc3c(ccc(O[C@H]4CCCC[C@@H]4NC4CCC(F)(F)CC4)c3F)C2=O)C(=O)N1 (stereo partly shown) [Reference Compound B-1, reference compound]	%	97
O=C1CCC(N2Cc3cc(C[C@H]4CCCC[C@@H]4NC4CCc5c(C(F)(F)F)n[nH]c5C4)ccc3C2=O)C(=O)N1 (single isomer, unassigned) [Example 362]	%	97
O=C1CCC(N2Cc3cc(C[C@H]4CCCC[C@@H]4NC4CCCOC4)ccc3C2=O)C(=O)N1 (single isomer, unassigned)	%	96
O=C1CCC(N2Cc3cc(C[C@H]4CCCC[C@@H]4N4CC(OCc5ccccc5)C4)ccc3C2=O)C(=O)N1 (stereo partly shown)	%	82

Query: Dmax; subject: O=C1CCC(N2Cc3cc(C[C@H]4CCCC[C@@H]4NCC45CCC(CC4)CC5)ccc3C2=O)C(=O)N1 (stereo partly shown)
92

Query: Dmax; subject: CC(N[C@H]1CCCC[C@@H]1Cc1ccc2c(c1)CN(C1CCC(=O)NC1=O)C2=O)C1CCS(=O)(=O)CC1 (single isomer, unassigned)
95
